Source: patent US20230041996A1

System: rat peritoneal mast cells
Assay: In vitro histamine release in rat peritoneal mast cells (histamine ELISA)
Format: cell-based
Conditions: test compound final concentration 10 μM, 15 min at 37° C., relative to PBS buffer (1.00)
Square brackets hold non-standard residues; d marks the D form. Peptide text beside a SMILES is read from it. * marks the point of attachment. Cys(free,S-linked) = N[C@@H](CS*)C(=O)O; d(hPhe) = N[C@H](CCc1ccccc1)C(=O)O; d2Thi = N[C@H](Cc1cccs1)C(=O)O
quantity kind: Relative fold of histamine release in vitro

| compound | target entity | observed |
| --- | --- | --- |
| CC(=O)N[C@H](CSSC[C@H](N)C(=O)O)C(=O)N[C@H](CCCNC(=N)N)C(=O)N[C@H](CCCNC(=N)N)C(=O)N[C@H](Cc1c[nH]cn1)C(=O)N[C@H](CCCNC(=N)N)C(=O)N[C@H](CO)C(=O)N[C@H](CCCNC(=N)N)C(N)=O [Compound 27, Ac-c(C)-r-r-h-r-s-r-NH2] (Ac-[dC](Cys(free,S-linked))[dR][dR][dH][dR][dS][dR]-NH2) | rat peritoneal mast cells | 2.23 |
| CC(=O)N[C@H](CSSC[C@H](N)C(=O)O)C(=O)N[C@H](CCCNC(=N)N)C(=O)N[C@H](CCCNC(=N)N)C(=O)N[C@H](CCc1ccccc1)C(=O)N[C@H](CCCNC(=N)N)C(=O)N[C@H](C)C(=O)N[C@H](CCCNC(=N)N)C(N)=O [Compound 16, Ac-c(C)-r-r-(D-hPhe)-r-a-r-NH2] (Ac-[dC](Cys(free,S-linked))[dR][dR][d(hPhe)][dR][dA][dR]-NH2) | rat peritoneal mast cells | 2.94 |
| CC(=O)N[C@H](CSSC[C@H](N)C(=O)O)C(=O)N[C@H](CCCNC(=N)N)C(=O)N[C@H](CCCNC(=N)N)C(=O)N[C@H](Cc1cccs1)C(=O)N[C@H](CCCNC(=N)N)C(=O)N[C@H](C)C(=O)N[C@H](CCCNC(=N)N)C(N)=O [Compound 13, Ac-c(C)-r-r-(D-2-Thi)-r-a-r-NH2] (Ac-[dC](Cys(free,S-linked))[dR][dR][d2Thi][dR][dA][dR]-NH2) | rat peritoneal mast cells | 2.38 |
